System: SNB-78 CNS
TEST: NCI tumour cell line growth inhibition, 48 h
MEASUREMENT TYPE: TGI

# example entries with known answers
molecule="CC(=O)n1cc(CC(C)O)c(=O)[nH]c1=O (stereo not given)" measurement_type=TGI result="> 100 µM"
molecule=O=C1C=CC(=O)c2c1cc1ccccc1c2O measurement_type=TGI result="10.5 µM"
molecule=COc1ccccc1NC(=O)CC(=O)n1nc(-c2ccccc2)c(N=Nc2ccccc2[N+](=O)[O-])c1-c1ccccc1 measurement_type=TGI result="> 100 µM"

Incoming: Would you kindly share the measured TGI for COc1ccc(/C=c2\sc3nnc(CCC(=O)Nc4cccc(C(F)(F)F)c4)n3c2=O)cc1 ?
Outgoing: > 100 µM

Incoming: Can you look up the measured TGI of COc1cc(-c2ccc(Nc3ccccc3C(=O)O)c(OC)c2)ccc1Nc1ccccc1C(=O)O for me?
Outgoing: > 100 µM

----------
Test system: HCC-2998 colon
TEST: NCI tumour cell line growth inhibition, 48 h
MEASUREMENT TYPE: TGI (µM)
Just the number please, in µM, no unit attached.

Before answering, review these 6 worked examples.
structure_smiles=Nc1cccc(/C=C/CN2CCN(CCOC(c3ccccc3)c3ccccc3)CC2)c1 measured_on="HCC-2998 colon" measurement_type=TGI unit=µM quantitative_readout=11.9
structure_smiles=O=C1c2cccc3cccc(c23)C(=O)N1CC#Cc1ccc2c3c(cccc13)C(=O)N(CCN1CCNCC1)C2=O measured_on="HCC-2998 colon" measurement_type=TGI unit=µM quantitative_readout=4.94
structure_smiles=N#Cc1ccc(N2Cc3cc(Cl)ccc3OC3=C2C(=O)N(Cc2ccc(F)cc2)C3=O)cc1 measured_on="HCC-2998 colon" measurement_type=TGI unit=µM quantitative_readout=2.89
structure_smiles=COc1cc(CCC(=O)O)c2cc3ccccc3cc2c1O measured_on="HCC-2998 colon" measurement_type=TGI unit=µM quantitative_readout=65.2
structure_smiles=O=NNc1ccc(Sc2ccc3ccccc3c2)cn1 measured_on="HCC-2998 colon" measurement_type=TGI unit=µM quantitative_readout=31.2
structure_smiles=Cc1nn2c(=O)n(-c3cccc(-n4nnc5c(-c6ccccc6)c(C)nn5c4=O)c3C)nnc2c1-c1ccccc1 measured_on="HCC-2998 colon" measurement_type=TGI unit=µM quantitative_readout=55.8

Incoming: What measured TGI goes with CCOP(=O)(CCN1CCN(CCCCCOc2cc3c(cc2OC)C(=O)N2CCC[C@H]2C=N3)CC1)OCC ?
Outgoing: 38.1

----------
Tested on: SW-620 colon
TEST: NCI tumour cell line growth inhibition, 48 h
MEASUREMENT TYPE: TGI

compound="O=C1CC(NCCCNC2CC(=O)c3c(Br)sc(Br)c32)c2c(Br)sc(Br)c21 (stereo unspecified)" measurement_type=TGI result="> 100 µM"
compound=Cc1nn2c(=O)n(-c3cccc(-n4nnc5c(-c6ccccc6)c(C)nn5c4=O)c3C)nnc2c1-c1ccccc1 measurement_type=TGI result="48.4 µM"
compound=C[N+](C)(C)CC(=O)N/N=C/c1oc(-c2cccc([N+](=O)[O-])c2)c(-c2cccc([N+](=O)[O-])c2)c1[N+](=O)[O-] measurement_type=TGI result="> 100 µM"
compound="NC(Cn1ccc(=O)c(O)c1)C(=O)O (stereo unspecified)" measurement_type=TGI result="> 100 µM"
compound="O=S1c2ccccc2N=C(c2ccc3ccccc3c2)CC1c1ccccc1F (stereo unspecified)" measurement_type=TGI result="> 100 µM"

Now for another entry.
Incoming: I would be grateful if you could share the reported TGI for CC(N)CN.CC(N)CN.[Cl-].[O]=[Os+2]=[O] (stereo unspecified) .
Outgoing: > 100 µM

----------
System: MDA-MB-231 breast
TEST: NCI tumour cell line growth inhibition, 48 h
The molecules listed here are annotated with their TGI.
Please respond with the number in µM and leave the unit unwritten.

molecule="O=C1CC(NC2CC(=O)c3c(Br)sc(Br)c32)c2c(Br)sc(Br)c21 (stereo not given)" unit=µM quantitative_readout=10.3

Incoming: TGI of O=C(NCCSSCCNC(=O)/C(Cc1ccc(O)c(Br)c1)=N/O)/C(Cc1ccc(O)c(Br)c1)=N/O on MDA-MB-231 breast?
Outgoing: 8.26

----------
Test system: PC-3 prostate
TEST: NCI tumour cell line growth inhibition, 48 h
MEASUREMENT TYPE: TGI

The following compounds have reported results that may help.
compound=CCNC(=S)Nc1c(C#N)c2n(c1C(=O)OCC)CCCCC2 measurement_type=TGI result="> 100 µM"
compound=C[C@]12CC[C@H]3[C@@H](CC=C4C[C@@H](O)CC[C@@]43C)[C@@H]1C[C@H](N1CCOCC1)[C@@H]2O measurement_type=TGI result="> 100 µM"
compound="Cc1cn(C2CC(N=[N+]=[N-])C(CO)O2)c(=O)[nH]c1=O (stereo unspecified)" measurement_type=TGI result="> 1000 µM"
compound="CC1=C(S(=O)c2ccc(C)cc2)CCC2(CCCCO2)O1 (stereo unspecified)" measurement_type=TGI result="> 100 µM"
compound="CC[C@@]1(OC(=O)C(N)CCC(=O)O)C(=O)OCc2c1cc1n(c2=O)Cc2cc3ccccc3nc2-1 (stereo partly specified)" measurement_type=TGI result="> 100 µM"
compound=Cc1ccc(S(=O)(=O)Nn2c(C)cc3ccc(S(=O)(=O)Nc4ccccc4[N+](=O)[O-])cc3c2=O)cc1 measurement_type=TGI result="> 100 µM"

Incoming: Which TGI is listed for Cc1cc(Br)c2nsnc2c1[N+](=O)[O-] ?
Outgoing: 15.8 µM

Incoming: // query TGI value for entry O=C(Nc1ccccc1)c1cc2c(cc1Cl)SC(NNCCO)=NS2(=O)=O
Outgoing: > 100 µM

Incoming: Any idea what its TGI is? The compound is CCCC(=O)n1[nH]c(=O)n(C(C)(C)C)c1=O
Outgoing: > 100 µM

Incoming: Would you kindly share the measured TGI for O=C(Nc1sccc1S(=O)(=O)c1ccc(Cl)cc1)c1ccc(Cl)cc1Cl ?
Outgoing: > 100 µM

Incoming: Quick one: TGI of O=C1CC(NCCCNC2CC(=O)c3c(Br)sc(Br)c32)c2c(Br)sc(Br)c21 (stereo unspecified) ?
Outgoing: 3.9 µM

----------
System: SR leukemia
TEST: NCI tumour cell line growth inhibition, 48 h; in the data active = GI50 below about 0.43 µM; inactive = the rest
Please reply with one of these outcomes: active, inactive

Check out these entries, answers already filled in.
compound=O=Cc1c[nH]c2ccc(-c3csc4ccccc34)cc12 classification=inactive
compound=CC(=O)Nc1c(I)c(C(=O)O)c(I)c(N(C)C(C)=O)c1I classification=inactive

Incoming: Lab log entry: COc1ccc(-c2nnc(Nc3nc(O)c(C4=c5cc(OC(F)(F)F)ccc5=NC4=O)s3)o2)cc1 — outcome as called in the assay?
Outgoing: inactive

Incoming: Entry CCOC(=O)c1c(C(F)(F)F)n([O-])c2ccc(Cl)cc2[n+]1=O : call = ?
Outgoing: inactive

Incoming: What is the recorded call for this compound in the test? COc1ccc(C2=NNC(c3cc(Cc4ccc(O)c(C5CC(c6ccc(OC)cc6)=NN5)c4)ccc3O)C2)cc1 (stereo not given)
Outgoing: inactive

Incoming: Recorded call for CC[C@@]1(O)C(=O)OCc2c1cc1n(c2=O)Cc2cc3c(Cl)c4c(cc3nc2-1)OCO4 ?
Outgoing: active

Incoming: Hi, sorry to bother you, what did the test record for Cc1cc(NS(=O)(=O)c2ccc(NC(=O)COc3ccc(-c4cc5ccccc5[nH]4)cc3)cc2)no1 ?
Outgoing: inactive

Incoming: Would you mind telling me which call this test gave Oc1[nH]c2ccc(Cl)cc2c1/C=c1/ccc2c(c1)N=C(c1ccc(C(F)(F)F)cc1)N=2 ?
Outgoing: inactive

Incoming: Recorded test call requested for Cc1cc(Br)c2nsnc2c1[N+](=O)[O-]
Outgoing: inactive

Incoming: State the result this test recorded for C[C@@H](Oc1cc(-c2cnn(C3CC4(CNC4)C3)c2)cnc1N)c1c(Cl)ccc(F)c1Cl .
Outgoing: active

Incoming: Dear all, I need the recorded test outcome for Cc1ccc(C2NC(=S)N3C(c4ccc(C)cc4)NC(=S)N23)cc1 (stereo not given) , thank you.
Outgoing: inactive

Incoming: What was the test verdict on Cc1ccc(NC(C(=O)c2ccccc2)c2ccccc2)cc1 (stereo not given) ?
Outgoing: inactive

Incoming: What is the recorded call for this compound in the test? COc1cc(C2CC(=O)c3c(C)nn(-c4nc5ccccc5[nH]4)c3C2)cc(OC)c1OC (stereo not given)
Outgoing: inactive

Incoming: State the result this test recorded for Cc1ccn2c(-c3csc(Nc4cccc(O)c4)n3)c(C)nc2c1 .
Outgoing: active

Incoming: Kindly provide the recorded test outcome for the following compound: N#Cc1ccc(N2Cc3cc(Cl)ccc3OC3=C2C(=O)N(Cc2ccc(F)cc2)C3=O)cc1
Outgoing: active

----------
GI50: recorded values
System: NCI-H23 lung
TEST: NCI tumour cell line growth inhibition, 48 h

compound=O=C1c2ccccc2-c2c1c1c(O)cccc1n2CCCc1ccccc1 result="18.6 µM"
compound="[CH3][Sn]([CH3])([CH3])[O]C(=O)C(O)c1ccccc1 (centres undefined)" result="6.68 µM"
compound="Cc1cc(C(=O)N2CCN(C)CC2)c2c(=O)n(-c3ccccc3)c(=O)n(CC(O)CN3CCN(c4ncccn4)CC3)c2n1 (centres undefined)" result="> 100 µM"

Incoming: Which GI50 value is on record for COc1ccc(Oc2nc(Nc3ccc(N4CCOCC4)cc3)ncc2NC(=O)Nc2cc(OC)cc(OC)c2)cc1 ?
Outgoing: 2.69 µM

Incoming: I would be grateful if you could share the reported GI50 for CCOC(=O)c1c(C(F)(F)F)n([O-])c2ccc(Cl)cc2[n+]1=O .
Outgoing: 1.71 µM

Incoming: // returns reported GI50 for input Cc1ccc2c(n1)C(=O)C(Cl)=C(Nc1ccc(N3CCN(C)CC3)cc1)C2=O
Outgoing: 1.79 µM
